Can you tell me PBM binding z-score for the items I'm about to list?
System: RARa homodimer (NR concentration 270 nM)
Protocol details: PBM binding z-score (relative to random genomic background probes); higher = stronger binding; sequences stand for … in GC…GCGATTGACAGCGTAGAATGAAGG
One number for each entry.

| Primary sequence | Target or system | PBM binding z-score |
| --- | --- | --- |
| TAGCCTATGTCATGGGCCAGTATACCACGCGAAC | RARa homodimer (NR concentration 270 nM) | -0.171 |

Consider the following items and state reported PBM binding z-score for each.
1. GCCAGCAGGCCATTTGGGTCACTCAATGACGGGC
2. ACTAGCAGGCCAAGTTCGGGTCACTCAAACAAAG
3. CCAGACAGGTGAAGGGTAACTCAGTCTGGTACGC
4. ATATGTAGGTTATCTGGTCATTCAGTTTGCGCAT
5. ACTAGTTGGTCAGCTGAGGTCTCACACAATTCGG

1. -1.21
2. -0.287
3. -0.195
4. 1.75
5. 0.106

###

System: VDR:RXRa (NR concentration 270 nM, RXRa partner concentration 90 nM)
Protocol details: PBM binding z-score (relative to random genomic background probes); higher = stronger binding; sequences stand for … in GC…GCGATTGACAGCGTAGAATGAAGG
Is PBM binding z-score at least 1? Then Yes. If not, No.

| Primary sequence | Group |
| --- | --- |
| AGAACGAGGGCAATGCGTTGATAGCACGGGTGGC | Yes |

Field: next sequence
Hi, just wondering whether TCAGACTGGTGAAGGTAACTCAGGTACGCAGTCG shows PBM binding z-score of 1 or higher.
No

###

System: RXRa homodimer (NR concentration 180 nM)
Protocol details: PBM binding z-score (relative to random genomic background probes); higher = stronger binding; sequences stand for … in GC…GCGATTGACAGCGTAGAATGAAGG
Outcome measure: PBM binding z-score
Give bare numbers.

Some solved cases for reference:
| Primary sequence | Observed result |
| --- | --- |
| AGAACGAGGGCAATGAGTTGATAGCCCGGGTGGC | 0.855 |
| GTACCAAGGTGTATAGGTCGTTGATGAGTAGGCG | 0.791 |
| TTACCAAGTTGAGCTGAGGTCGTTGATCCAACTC | 0.839 |
| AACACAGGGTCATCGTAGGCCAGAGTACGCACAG | 6.58 |
| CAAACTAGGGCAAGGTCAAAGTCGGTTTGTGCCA | 4.63 |

Consider the following items and state reported PBM binding z-score for each.
1. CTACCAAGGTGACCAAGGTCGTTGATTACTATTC
2. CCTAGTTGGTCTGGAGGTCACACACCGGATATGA
3. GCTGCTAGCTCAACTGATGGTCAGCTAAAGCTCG
4. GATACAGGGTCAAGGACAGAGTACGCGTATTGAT
5. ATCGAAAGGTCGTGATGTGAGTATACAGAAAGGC
6. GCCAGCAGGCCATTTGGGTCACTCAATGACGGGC
7. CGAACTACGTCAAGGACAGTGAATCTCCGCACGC
8. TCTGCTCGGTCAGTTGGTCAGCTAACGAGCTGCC

1.66
4.63
-0.88
6.51
4.56
0.736
0.0152
-0.299

Consider the following items and state reported PBM binding z-score for each.
1. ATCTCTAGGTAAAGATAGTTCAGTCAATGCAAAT
2. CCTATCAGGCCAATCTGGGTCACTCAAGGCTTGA
3. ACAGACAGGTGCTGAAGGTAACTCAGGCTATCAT

1: 0.151; 2: 1.14; 3: -0.0891

Consider the following items and state reported PBM binding z-score for each.
1. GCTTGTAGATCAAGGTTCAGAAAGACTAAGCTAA
2. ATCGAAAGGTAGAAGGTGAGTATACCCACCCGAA
3. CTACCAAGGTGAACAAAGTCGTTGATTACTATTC
4. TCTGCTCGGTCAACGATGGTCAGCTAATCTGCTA

0.62
0.752
0.378
0.25

Consider the following items and state reported PBM binding z-score for each.
1. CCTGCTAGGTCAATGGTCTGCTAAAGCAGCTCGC
2. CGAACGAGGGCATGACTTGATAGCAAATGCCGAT
3. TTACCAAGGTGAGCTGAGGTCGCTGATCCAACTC
4. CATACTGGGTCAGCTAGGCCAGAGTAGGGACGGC
5. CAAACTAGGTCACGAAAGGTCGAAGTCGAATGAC
6. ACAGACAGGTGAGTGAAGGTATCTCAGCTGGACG

1.63
0.981
1.2
1.39
5.66
0.228
